B1: glmS ribozyme (parent)
chain: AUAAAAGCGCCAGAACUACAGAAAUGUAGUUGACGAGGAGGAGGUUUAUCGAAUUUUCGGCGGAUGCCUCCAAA

# Variants of: B1
# Method description: self-cleavage kobs at 160 uM GlcN6P; higher = faster cleavage; RNA array
# Protocol conditions: with glucosamine-6-phosphate
This sample holds only a part of the variants without activity.
Assay metric: self-cleavage kobs at 160 uM GlcN6P (s⁻¹)
Give the quantity in s⁻¹, number only.

// solved cases for self-cleavage kobs at 160 uM GlcN6P follow
[
  {
    "Mutant label": "A14U G32U",
    "self-cleavage kobs at 160 uM GlcN6P / s⁻¹": "7.67e-05"
  },
  {
    "Mutant label": "U55G C68A",
    "self-cleavage kobs at 160 uM GlcN6P / s⁻¹": 0.000151
  },
  {
    "Mutant label": "U47G C67U",
    "self-cleavage kobs at 160 uM GlcN6P / s⁻¹": 0.000305
  },
  {
    "Mutant label": "A53C G66A",
    "self-cleavage kobs at 160 uM GlcN6P / s⁻¹": 0.000292
  },
  {
    "Mutant label": "U30G U69A",
    "self-cleavage kobs at 160 uM GlcN6P / s⁻¹": "3.45e-05"
  }
]

self-cleavage kobs at 160 uM GlcN6P measured on A33G C67G C70A = 4.49e-05

Value of self-cleavage kobs at 160 uM GlcN6P reported for the variant C16G C67G is 0.000347

Record A12G A14G , field self-cleavage kobs at 160 uM GlcN6P: 8.41e-05

Entry G29A U47A ; self-cleavage kobs at 160 uM GlcN6P = 0.000152

So, C67U C71U ? Its self-cleavage kobs at 160 uM GlcN6P was 0.000128

Short answer for A52U U54C : self-cleavage kobs at 160 uM GlcN6P was 3.57e-05
